These entries and their values trace back to patent US11230547B2.

target: PI3Kdelta (Homo sapiens (Human)); assay: HTRF PI3K biochemical assay, delta isoform; conditions: 0.3 nM enzyme, 100 uM ATP, 5 uM PIP2, form screened per table
Assay Metric: IC50 (nM)

| Compound | IC50 (nM) |
| --- | --- |
| N#Cc1cnc(-c2cn[nH]c2)nc1N1C[C@@H]2C[C@H]1CN2c1cccc(F)c1 | 42 |

[I] C[C@@H]1CN(c2ncc(C(F)F)c(-c3cnn(C)c3)n2)CCN1C(=O)C1CC1
[II] Cn1cc(-c2ncc(C#N)c(N3CC4C[C@H]3CN4c3cccc(C#N)c3)n2)cn1 (stereo in doubt)
Q. Consider I and II . Which of these has its IC50 at a higher number? Pick one and reply with its label.
A. I
(I: 370 nM, II: 69 nM)

###

molecular target: PI3Kdelta (Homo sapiens (Human), UniProt O00329); test: HTRF PI3K biochemical assay, delta isoform; details: 0.3 nM enzyme, 100 uM ATP, 5 uM PIP2, form screened per table
Sequence (O00329 whole entry, one chain of several, canonical isoform): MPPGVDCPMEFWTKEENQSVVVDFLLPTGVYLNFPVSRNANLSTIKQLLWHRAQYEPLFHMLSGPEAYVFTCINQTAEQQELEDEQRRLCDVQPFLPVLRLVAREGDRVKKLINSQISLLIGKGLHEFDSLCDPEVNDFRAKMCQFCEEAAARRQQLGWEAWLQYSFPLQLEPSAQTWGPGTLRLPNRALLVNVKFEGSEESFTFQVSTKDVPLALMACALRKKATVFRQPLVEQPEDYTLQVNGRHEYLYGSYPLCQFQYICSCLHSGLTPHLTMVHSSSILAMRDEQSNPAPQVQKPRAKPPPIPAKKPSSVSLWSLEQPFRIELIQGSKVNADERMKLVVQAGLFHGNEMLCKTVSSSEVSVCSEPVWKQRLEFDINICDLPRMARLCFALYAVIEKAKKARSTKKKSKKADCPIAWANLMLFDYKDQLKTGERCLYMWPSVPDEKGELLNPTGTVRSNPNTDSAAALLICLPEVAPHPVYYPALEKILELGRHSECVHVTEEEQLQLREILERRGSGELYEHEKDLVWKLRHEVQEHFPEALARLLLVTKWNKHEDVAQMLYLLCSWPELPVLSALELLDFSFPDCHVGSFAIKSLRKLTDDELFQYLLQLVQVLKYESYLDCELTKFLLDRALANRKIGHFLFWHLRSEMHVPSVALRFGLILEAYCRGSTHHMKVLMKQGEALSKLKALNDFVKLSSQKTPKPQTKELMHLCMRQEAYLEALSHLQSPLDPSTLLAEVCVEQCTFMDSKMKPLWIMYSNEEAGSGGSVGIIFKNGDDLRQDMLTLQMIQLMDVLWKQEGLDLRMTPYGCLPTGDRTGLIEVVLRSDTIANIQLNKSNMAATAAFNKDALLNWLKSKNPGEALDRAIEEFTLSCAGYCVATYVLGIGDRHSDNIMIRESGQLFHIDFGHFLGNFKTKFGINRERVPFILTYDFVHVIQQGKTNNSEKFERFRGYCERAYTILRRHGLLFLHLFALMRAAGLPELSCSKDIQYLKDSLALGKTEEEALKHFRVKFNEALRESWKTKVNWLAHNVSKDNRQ
pIC50: −log10 of the molar value.
Assay Metric: pIC50

For orientation, consider the following solved cases.
| Compound | pIC50 |
| --- | --- |
| C[C@@H]1CN(c2nc(-c3cnn(C)c3CCC(F)(F)F)ncc2C#N)CCN1C(=O)C1CC1 | 6.80 |
| C[C@@H]1CN(c2nc(-c3cnn(C)c3)nc(NC(=O)NCC(F)(F)F)c2C#N)CCN1C(=O)C1CC1 | 7.80 |
| CCNC(=O)N1C[C@@H]2CC1CN2c1nc(-c2cnn(C)c2)ncc1C#N (stereo in doubt) | 5.66 |
| Cn1cc(-c2ncc(C#N)c(N3CCN(c4cccc(F)c4)CC3)n2)cn1 | 5.80 |
| Cn1cc(-c2ncc(C#N)c(N3CC4C[C@H]3CN4S(=O)(=O)C3CCCC3)n2)cn1 (stereo in doubt) | 6.19 |
| C[C@@H]1CN(c2nc(-c3cnn(C)c3)nc(NC(=O)NC3CCC3)c2C#N)CCN1C(=O)C1CC1 | 8.30 |
| Cn1cc(-c2ncc(C#N)c(N3CC4C[C@H]3CN4C(=O)C3CC3)n2)cn1 (stereo in doubt) | 6.80 |
| C[C@@H]1C[C@H]1C(=O)N1CCN(c2nc(-c3cnn(C)c3)ncc2C#N)C[C@H]1C | 7.49 |
| N#Cc1cnc(-c2cccc3[nH]ncc23)nc1N1C[C@@H]2CC1CN2c1cccc(F)c1 (stereo in doubt) | 6.70 |
| N#Cc1cnc(-c2ccnc3[nH]ccc23)nc1N1C[C@@H]2CC1CN2c1cccc(F)c1 (stereo in doubt) | 7.25 |

[A] C#Cc1cnc(N2CCN(C(=O)C3CC3)[C@H](C)C2)nc1-c1cnn(C)c1
[B] C[C@@H]1CN(c2nc(-c3cnn(C)c3)nc(NCCC(F)(F)F)c2C#N)CCN1C(=O)C1CC1
Q. Which gives the smaller pIC50 number: A or B ? Pick one and reply with its label.
A. A

###

target: PI3Kalpha (Homo sapiens (Human), UniProt P42336); test: HTRF PI3K biochemical assay, alpha isoform (selectivity versus delta); conditions: relative ratio PI3K-alpha IC50 value / PI3K-delta IC50 value
Sequence (P42336 whole entry, canonical isoform): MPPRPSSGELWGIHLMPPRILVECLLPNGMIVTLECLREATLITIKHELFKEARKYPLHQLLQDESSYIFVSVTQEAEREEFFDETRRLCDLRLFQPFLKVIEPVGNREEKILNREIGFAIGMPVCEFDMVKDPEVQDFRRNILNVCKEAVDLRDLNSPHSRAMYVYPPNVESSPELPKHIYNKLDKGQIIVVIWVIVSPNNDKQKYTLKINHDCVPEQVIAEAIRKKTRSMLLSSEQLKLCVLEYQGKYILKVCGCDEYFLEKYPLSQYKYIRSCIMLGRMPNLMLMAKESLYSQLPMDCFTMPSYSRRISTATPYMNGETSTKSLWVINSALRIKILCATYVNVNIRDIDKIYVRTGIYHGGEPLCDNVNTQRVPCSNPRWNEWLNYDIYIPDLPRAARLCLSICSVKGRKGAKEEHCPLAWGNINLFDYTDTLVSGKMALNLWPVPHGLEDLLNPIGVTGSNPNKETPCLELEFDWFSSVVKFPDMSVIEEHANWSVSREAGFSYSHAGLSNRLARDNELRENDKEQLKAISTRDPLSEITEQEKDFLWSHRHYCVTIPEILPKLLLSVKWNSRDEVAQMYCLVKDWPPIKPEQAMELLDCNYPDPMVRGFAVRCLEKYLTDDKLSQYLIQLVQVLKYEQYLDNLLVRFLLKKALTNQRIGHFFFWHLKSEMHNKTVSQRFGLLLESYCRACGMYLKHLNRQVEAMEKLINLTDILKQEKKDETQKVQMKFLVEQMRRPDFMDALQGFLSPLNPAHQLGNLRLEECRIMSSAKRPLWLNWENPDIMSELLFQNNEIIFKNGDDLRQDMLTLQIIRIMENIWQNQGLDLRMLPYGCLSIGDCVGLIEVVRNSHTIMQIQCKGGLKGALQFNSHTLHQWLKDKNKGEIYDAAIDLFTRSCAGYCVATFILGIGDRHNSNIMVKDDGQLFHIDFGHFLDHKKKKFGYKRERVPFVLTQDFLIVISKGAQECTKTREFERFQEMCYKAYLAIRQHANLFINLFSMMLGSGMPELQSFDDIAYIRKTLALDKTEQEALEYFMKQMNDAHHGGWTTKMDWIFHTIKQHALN
Sequence (P27986 whole entry partner, canonical isoform): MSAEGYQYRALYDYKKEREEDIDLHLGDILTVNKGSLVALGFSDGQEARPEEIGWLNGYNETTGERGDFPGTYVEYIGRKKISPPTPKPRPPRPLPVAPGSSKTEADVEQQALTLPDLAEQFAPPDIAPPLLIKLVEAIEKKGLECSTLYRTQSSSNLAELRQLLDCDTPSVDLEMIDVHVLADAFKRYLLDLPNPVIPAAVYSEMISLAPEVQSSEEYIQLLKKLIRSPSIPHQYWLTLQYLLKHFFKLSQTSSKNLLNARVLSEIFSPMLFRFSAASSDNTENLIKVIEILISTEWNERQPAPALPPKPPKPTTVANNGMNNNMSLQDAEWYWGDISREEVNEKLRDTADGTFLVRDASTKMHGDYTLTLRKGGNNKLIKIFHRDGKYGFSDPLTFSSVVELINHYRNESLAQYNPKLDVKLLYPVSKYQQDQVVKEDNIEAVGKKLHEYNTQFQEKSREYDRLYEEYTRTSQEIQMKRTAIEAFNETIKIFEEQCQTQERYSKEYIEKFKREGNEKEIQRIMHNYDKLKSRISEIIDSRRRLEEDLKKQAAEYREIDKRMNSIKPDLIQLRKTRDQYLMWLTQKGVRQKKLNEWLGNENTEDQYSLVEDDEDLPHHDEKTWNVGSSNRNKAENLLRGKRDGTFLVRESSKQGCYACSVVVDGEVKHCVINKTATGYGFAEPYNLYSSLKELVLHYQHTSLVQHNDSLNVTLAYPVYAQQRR
Catalogue of Selectivity versus PI3Kalpha readings, one per entry.

For orientation, consider the following solved cases.
| Molecule | Target Or Test System | Assay Metric | Value Observed |
| --- | --- | --- | --- |
| Cn1cc(-c2ncc(C#N)c(N3CC4C[C@H]3CN4c3ccc(C(F)F)nc3)n2)cn1 (stereo in doubt) | PI3Kalpha (Homo sapiens (Human), UniProt P42336) | Selectivity versus PI3Kalpha | >10 |
| COc1cccc(N2C[C@@H]3CC2CN3c2nc(-c3cnn(C)c3)ncc2C#N)c1 (stereo in doubt) | PI3Kalpha (Homo sapiens (Human), UniProt P42336) | Selectivity versus PI3Kalpha | >10 |
| C[C@@H]1CN(c2cc(C#N)nc(-c3cnn(C)c3)n2)CCN1C(=O)C1CC1 | PI3Kalpha (Homo sapiens (Human), UniProt P42336) | Selectivity versus PI3Kalpha | >10 |

Please find the next molecule below.
Q. Please give the measured Selectivity versus PI3Kalpha for this molecule: C[C@@H]1CN(c2nc(-c3cnn(C)c3)ncc2C#N)CCN1c1cccc([N+](=O)[O-])c1
A. >10
